- Test system: p38δ (Homo sapiens)
- Construct: purchased Eurofins Pharma Discovery Services UK Limited (KinaseProfiler service)
- Assay: KinaseProfiler quantitative kinase assay (Eurofins), MBP substrate
- Format: biochemical
- Setup conditions: 1 µM; ATP at Km 15 µM; means of duplicate determinations
Each entry gets no (0) if its %kinase activity relative to control, p38δ stays under 90%, and yes (1) if its %kinase activity relative to control, p38δ is 90% or above.

Before answering, review these 3 worked examples.
CC(=O)Nc1nnc(Sc2ccnc3cc(Cl)ccc23)s1 ... yes (1)
Nc1nnc(Sc2ccnc3cc(Cl)ccc23)s1 ... yes (1)
CCCCC/C=C/C(=O)Nc1nnc(Sc2ccnc3cc(Cl)ccc23)s1 ... no (0)

Moving on to the next molecule.
Form field: %kinase activity relative to control, p38δ at least 90%? Entry: "CCCCCC(=O)Nc1nnc(Sc2ccnc3cc(Cl)ccc23)s1" yes (1)

----------
- Test system: p38α (Homo sapiens, UniProt Q16539)
- Construct: purchased Eurofins Pharma Discovery Services UK Limited (KinaseProfiler service)
- Sequence (Q16539 whole entry): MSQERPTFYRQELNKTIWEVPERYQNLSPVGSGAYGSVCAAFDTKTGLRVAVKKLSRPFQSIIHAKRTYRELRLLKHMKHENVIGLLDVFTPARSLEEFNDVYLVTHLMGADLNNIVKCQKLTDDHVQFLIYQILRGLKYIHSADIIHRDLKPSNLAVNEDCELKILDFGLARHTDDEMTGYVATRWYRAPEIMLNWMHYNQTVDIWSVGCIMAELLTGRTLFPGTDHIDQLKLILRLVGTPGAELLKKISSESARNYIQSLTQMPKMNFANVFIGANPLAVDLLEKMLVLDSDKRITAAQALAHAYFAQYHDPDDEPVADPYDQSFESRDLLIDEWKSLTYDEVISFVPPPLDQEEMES
- Assay: KinaseProfiler quantitative kinase assay (Eurofins), MBP substrate
- Format: biochemical
- Setup conditions: 10 µM; ATP at Km 90 µM; means of duplicate determinations
# %kinase activity relative to control, p38α listing for each entry below
Return type: number; implicit unit %.

A selection of reference data follows.
Nc1nnc(Sc2ccnc3cc(Cl)ccc23)s1 ... 72
CCCCCCCC(=O)Nc1nnc(Sc2ccnc3cc(Cl)ccc23)s1 ... 94
CCCCCC(=O)Nc1nnc(Sc2ccnc3cc(Cl)ccc23)s1 ... 86

Which %kinase activity relative to control, p38α value belongs to "CC(=O)Nc1nnc(Sc2ccnc3cc(Cl)ccc23)s1" ? 94

Next record, please: "CCCCC/C=C/C(=O)Nc1nnc(Sc2ccnc3cc(Cl)ccc23)s1" 82

----------
- Test system: p38α (Homo sapiens)
- Construct: purchased Eurofins Pharma Discovery Services UK Limited (KinaseProfiler service)
- Assay: KinaseProfiler quantitative kinase assay (Eurofins), MBP substrate
- Assay type: biochemical
- Setup conditions: 1 µM; ATP at Km 90 µM; means of duplicate determinations
Measure name: %kinase activity relative to control, p38α (%)
Return type: number; implicit unit %.

Nc1nnc(Sc2ccnc3cc(Cl)ccc23)s1 [SU-001] ... 91
CC(=O)Nc1nnc(Sc2ccnc3cc(Cl)ccc23)s1 [SU-003] ... 92

Which %kinase activity relative to control, p38α value belongs to CCCCCC(=O)Nc1nnc(Sc2ccnc3cc(Cl)ccc23)s1 [SU-004] ? 91

Next record, please: CCCCCCCC(=O)Nc1nnc(Sc2ccnc3cc(Cl)ccc23)s1 [SU-002] 88

Next record, please: CCCCC/C=C/C(=O)Nc1nnc(Sc2ccnc3cc(Cl)ccc23)s1 [SU-005] 91

----------
# %kinase activity relative to control, p38γ listing for each entry below
- Test system: p38γ (Homo sapiens)
- Assay: KinaseProfiler quantitative kinase assay (Eurofins), MBP substrate
- Format: biochemical
- Set-up: purchased Eurofins Pharma Discovery Services UK Limited (KinaseProfiler service)
- Setup conditions: 1 µM; ATP at Km 15 µM; means of duplicate determinations
Return type: number; implicit unit %.

CC(=O)Nc1nnc(Sc2ccnc3cc(Cl)ccc23)s1 [SU-003] ... 112

Which %kinase activity relative to control, p38γ value belongs to CCCCCC(=O)Nc1nnc(Sc2ccnc3cc(Cl)ccc23)s1 [SU-004] ? 111

Next record, please: CCCCCCCC(=O)Nc1nnc(Sc2ccnc3cc(Cl)ccc23)s1 [SU-002] 92

Next record, please: CCCCC/C=C/C(=O)Nc1nnc(Sc2ccnc3cc(Cl)ccc23)s1 [SU-005] 90

Next record, please: Nc1nnc(Sc2ccnc3cc(Cl)ccc23)s1 [SU-001] 103

----------
- Test system: p38αT106M (Homo sapiens, UniProt Q16539, T106M)
- Sequence (Q16539 whole entry T106M): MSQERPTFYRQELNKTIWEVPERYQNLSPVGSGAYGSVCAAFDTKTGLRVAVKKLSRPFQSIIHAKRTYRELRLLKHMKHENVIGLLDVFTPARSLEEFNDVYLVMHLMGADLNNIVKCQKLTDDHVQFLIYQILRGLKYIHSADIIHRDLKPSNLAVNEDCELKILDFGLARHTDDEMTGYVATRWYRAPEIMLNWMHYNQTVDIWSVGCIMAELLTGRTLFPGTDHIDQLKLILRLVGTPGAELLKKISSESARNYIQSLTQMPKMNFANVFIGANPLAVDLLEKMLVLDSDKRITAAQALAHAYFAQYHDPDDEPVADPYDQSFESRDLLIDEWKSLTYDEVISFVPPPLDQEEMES
- Assay: KinaseProfiler quantitative kinase assay (Eurofins), MBP substrate
- Setup conditions: MBP substrate; kinase activated by constitutively active MKK6; ATP 70 μM; read-out: IC50 against p38αT106M
Measure name: pIC50
Notebook: values listed as pIC50 are -log10 of the concentration (mol/L).

Which pIC50 value belongs to "CCCCC/C=C/C(=O)Nc1nnc(Sc2ccnc3cc(Cl)ccc23)s1" ? 6.74

----------
- Test system: p38γ (Homo sapiens)
- Sequence (P53778 1-367): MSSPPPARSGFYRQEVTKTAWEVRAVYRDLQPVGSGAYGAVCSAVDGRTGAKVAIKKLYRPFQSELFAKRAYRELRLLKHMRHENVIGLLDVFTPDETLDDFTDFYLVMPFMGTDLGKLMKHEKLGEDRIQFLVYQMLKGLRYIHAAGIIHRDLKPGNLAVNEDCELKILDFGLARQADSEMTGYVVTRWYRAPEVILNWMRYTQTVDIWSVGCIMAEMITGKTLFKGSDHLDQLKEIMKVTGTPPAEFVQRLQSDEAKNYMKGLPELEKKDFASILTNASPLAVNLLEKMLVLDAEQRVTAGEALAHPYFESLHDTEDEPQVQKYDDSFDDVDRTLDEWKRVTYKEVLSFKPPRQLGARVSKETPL
- Assay: KinaseProfiler quantitative kinase assay (Eurofins), MBP substrate
- Type: biochemical
- Parameters: purchased Eurofins Pharma Discovery Services UK Limited (KinaseProfiler service)
- Setup conditions: 10 µM; ATP at Km 15 µM; means of duplicate determinations
# %kinase activity relative to control, p38γ listing for each entry below
Return type: number; implicit unit %.

A selection of reference data follows.
Nc1nnc(Sc2ccnc3cc(Cl)ccc23)s1 ... 95
CCCCCC(=O)Nc1nnc(Sc2ccnc3cc(Cl)ccc23)s1 ... 104
CCCCCCCC(=O)Nc1nnc(Sc2ccnc3cc(Cl)ccc23)s1 ... 88
CC(=O)Nc1nnc(Sc2ccnc3cc(Cl)ccc23)s1 ... 104

# next compound below
Which %kinase activity relative to control, p38γ value belongs to "CCCCC/C=C/C(=O)Nc1nnc(Sc2ccnc3cc(Cl)ccc23)s1" ? 80

----------
- Assay: Solubility limit seen in the kinase assay
- Type: physicochemical
- Setup conditions: aqueous buffer; kinase assay conditions; read-out: concentration at which the compound is insoluble
Measure name: solubility

Which solubility value belongs to CCCCC/C=C/C(=O)Nc1nnc(Sc2ccnc3cc(Cl)ccc23)s1 [SU-005] ? > 30 µM

----------
- Test system: p38αT106M (Homo sapiens, UniProt Q16539, T106M)
- Construct: purchased Eurofins Pharma Discovery Services UK Limited (KinaseProfiler service)
- Assay: KinaseProfiler quantitative kinase assay (Eurofins), MBP substrate
- Type: biochemical
- Setup conditions: 1 µM; ATP at Km 70 µM; means of duplicate determinations
# %kinase activity relative to control, p38αT106M listing for each entry below
Return type: number; implicit unit %.

A selection of reference data follows.
CCCCCCCC(=O)Nc1nnc(Sc2ccnc3cc(Cl)ccc23)s1 ... 83
CCCCCC(=O)Nc1nnc(Sc2ccnc3cc(Cl)ccc23)s1 ... 99
CCCCC/C=C/C(=O)Nc1nnc(Sc2ccnc3cc(Cl)ccc23)s1 ... 14

Which %kinase activity relative to control, p38αT106M value belongs to "Nc1nnc(Sc2ccnc3cc(Cl)ccc23)s1" ? 99

Next record, please: "CC(=O)Nc1nnc(Sc2ccnc3cc(Cl)ccc23)s1" 96

----------
- Test system: p38δ (Homo sapiens, UniProt O15264)
- Construct: purchased Eurofins Pharma Discovery Services UK Limited (KinaseProfiler service)
- Sequence (O15264 whole entry): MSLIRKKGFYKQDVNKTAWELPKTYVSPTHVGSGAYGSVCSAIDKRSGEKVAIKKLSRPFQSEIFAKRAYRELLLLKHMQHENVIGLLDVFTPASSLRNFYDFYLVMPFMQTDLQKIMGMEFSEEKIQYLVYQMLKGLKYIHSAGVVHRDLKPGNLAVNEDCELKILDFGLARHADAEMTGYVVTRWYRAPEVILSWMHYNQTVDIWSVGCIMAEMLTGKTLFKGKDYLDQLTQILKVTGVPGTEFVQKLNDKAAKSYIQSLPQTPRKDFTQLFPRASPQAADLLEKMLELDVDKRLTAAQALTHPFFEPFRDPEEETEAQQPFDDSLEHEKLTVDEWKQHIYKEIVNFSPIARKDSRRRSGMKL
- Assay: KinaseProfiler quantitative kinase assay (Eurofins), MBP substrate
- Type: biochemical
- Setup conditions: 10 µM; ATP at Km 15 µM; means of duplicate determinations
# %kinase activity relative to control, p38δ listing for each entry below
Return type: number; implicit unit %.

A selection of reference data follows.
CCCCCC(=O)Nc1nnc(Sc2ccnc3cc(Cl)ccc23)s1 ... 97
CCCCC/C=C/C(=O)Nc1nnc(Sc2ccnc3cc(Cl)ccc23)s1 ... 75
Nc1nnc(Sc2ccnc3cc(Cl)ccc23)s1 ... 92
CCCCCCCC(=O)Nc1nnc(Sc2ccnc3cc(Cl)ccc23)s1 ... 96

# next compound below
Which %kinase activity relative to control, p38δ value belongs to "CC(=O)Nc1nnc(Sc2ccnc3cc(Cl)ccc23)s1" ? 81
